Listing: TGI of selected compounds
tested on: MOLT-4 leukemia; assay: NCI tumour cell line growth inhibition, 48 h
Where a SMILES comes first, the peptide text is derived from it. The star is where a group is joined. Palmitoyl = CCCCCCCCCCCCCCCC(=O)*

COMPOUND	MEASURED_PROPERTY	RESULT
CC(C)(C)OC(=O)NC(CSSCC(NC(=O)OC(C)(C)C)C(=O)O)C(=O)O (stereo not drawn)	TGI	> 100 µM
COC(=O)c1c(C)cc(OC)c(C/C=C(\C)CCCc2coc(C=C(C)C)c2)c1OC	TGI	> 100 µM
COc1ccc(Cl)cc1NC(=O)c1ccc(NC2=C(Cl)C(=O)N(Cc3ccccc3)C2=O)cc1	TGI	13.4 µM
O=Cc1cc2c(cc1-c1cc3c(cc1C=O)OCO3)OCO2	TGI	> 100 µM
Cc1cc(C[C@H]2O[C@@H]3OC(C)(C)O[C@@H]3[C@H]3OC(C)(C)O[C@H]32)c2ccccc2n1	TGI	> 100 µM

Input line: Fill in: TGI of Cc1nc2ccccc2c(-n2cccn2)c1CCn1cccn1 is ___
Output line: > 100 µM

Input line: Fill in: TGI of O=[N+]([O-])c1cccnc1N=Nc1c(O)[nH]c2ccccc12 is ___
Output line: > 100 µM

Input line: Fill in: TGI of Cc1c2c(c(C)n1-c1ccccc1)C(=O)N(CCN1CCN(c3cccc(C(F)(F)F)c3)CC1)C2=O is ___
Output line: > 100 µM

Input line: Fill in: TGI of CCCCCCCCCCCCCCCC(=O)N1CCCC1C(=O)NCC(=O)NC(Cc1ccccc1)C(=O)N1CCCC1C(=O)NC(CO)C(=O)NC(Cc1ccc(O)cc1)C(=O)NC(CCCCN)C(=O)NC(CC(C)C)C(=O)NC(CCCN=C(N)N)C(=O)N1CCCC1C(=O)NCC(N)=O (stereo not drawn) (Palmitoyl-PGFPSYKLRPG-NH2; configuration not given here) is ___
Output line: 37.7 µM

Input line: Fill in: TGI of C=C(C)C(C1C=C(CCC(C=O)=C(C)C)C(=O)O1)C1(OC)C=C(C)C(=O)O1 (stereo not drawn) is ___
Output line: > 100 µM

Input line: Fill in: TGI of CCOc1c(OC)cc(-c2nc3n(n2)C(=O)C(CC)S3)cc1OC (stereo not drawn) is ___
Output line: > 10 µM

Input line: Fill in: TGI of C[N+](C)(C)CC(=O)N/N=C(/Cc1cc(=O)oc2cc(O)ccc12)C(=O)Nc1ccc(Cl)cc1 is ___
Output line: > 100 µM

Input line: Fill in: TGI of Cc1cc(C(=O)CSC(=S)SC(C)(C)C)ccc1Cl is ___
Output line: 62.9 µM

###

Listing: TGI of selected compounds
tested on: SK-MEL-28 melanoma; experiment: NCI tumour cell line growth inhibition, 48 h
Where a SMILES comes first, the peptide text is derived from it. The star is where a group is joined. Palmitoyl = CCCCCCCCCCCCCCCC(=O)*

COMPOUND	SYSTEM_UNDER_TEST	TGI
C=C(C)C(C1C=C(CCC(C=O)=C(C)C)C(=O)O1)C1(OC)C=C(C)C(=O)O1 (stereo unspecified)	SK-MEL-28 melanoma	> 100 µM

Input line: Test system SK-MEL-28 melanoma; read-out TGI; what value for CCCCCCCC(=O)OCC1OC(n2cc(F)c(=O)[nH]c2=O)C(N)C(OC(=O)CCCCCCC)C1O (stereo unspecified) ?
Output line: 34.1 µM

Input line: Test system SK-MEL-28 melanoma; read-out TGI; what value for COC(=O)c1c(C)cc(OC)c(C/C=C(\C)CCCc2coc(C=C(C)C)c2)c1OC ?
Output line: > 100 µM

Input line: Test system SK-MEL-28 melanoma; read-out TGI; what value for C=CC1(C)CC(=O)C2(O)C(C)(O1)C(OC(C)=O)C(O)C1C(C)(C)CCC(O)C12C (stereo unspecified) ?
Output line: > 150 µM

Input line: Test system SK-MEL-28 melanoma; read-out TGI; what value for NC(=S)N/N=C/c1ncccc1O ?
Output line: > 1000 µM

Input line: Test system SK-MEL-28 melanoma; read-out TGI; what value for CCCCCCCCCCCCCCCC(=O)N1CCCC1C(=O)NCC(=O)NC(Cc1ccccc1)C(=O)N1CCCC1C(=O)NC(CO)C(=O)NC(Cc1ccc(O)cc1)C(=O)NC(CCCCN)C(=O)NC(CC(C)C)C(=O)NC(CCCN=C(N)N)C(=O)N1CCCC1C(=O)NCC(N)=O (stereo unspecified) (Palmitoyl-PGFPSYKLRPG-NH2; configuration not given here) ?
Output line: 50.3 µM

###

tested on: SF-295 CNS; assay: NCI tumour cell line growth inhibition, 48 h; in the data active means GI50 below about 0.43 µM; inactive means the rest
Returns: one label drawn from active, inactive

Answered cases to consult:
>>> df
                                   compound       cat
0  Cc1cccc(NC2=C(Cl)C(=O)c3nc(C)ccc3C2=O)c1  inactive
1  O=C(Nc1ncc(Cc2cccc(C(F)(F)F)c2)s1)c1ccc2c(c1)OCCO2    active
2  COc1cc2c(cc1OCCCCCN1CCN(c3ncnc4ccccc34)CC1)N=CC1CCCN1C2=O (stereo unspecified)    active

Input line: Hi, do you know how COC(=O)C1=CN(CC2=CC(=O)C(C)=CC2=O)C=C(C(=O)OC)C1c1ccccc1OC came out in this test?
Output line: inactive

Input line: Hi, do you know how COc1ccc(Cl)cc1NC(=O)c1ccc(NC2=C(Cl)C(=O)N(Cc3ccccc3)C2=O)cc1 came out in this test?
Output line: inactive

Input line: Hi, do you know how CCN(Cc1c(F)cccc1OC)c1ccc(CO)c(Cl)c1 came out in this test?
Output line: active

Input line: Hi, do you know how COC(=O)/C=C/c1cc(OC(C)=O)c2c(c1)C(C(=O)OC)C(c1ccc(OC(C)=O)c(OC(C)=O)c1)O2 (stereo unspecified) came out in this test?
Output line: active

Input line: Hi, do you know how O=C(Nc1nc(-c2c[nH]c3ccccc23)cs1)c1n[nH]c(=O)c2ccccc12 came out in this test?
Output line: inactive

Input line: Hi, do you know how CNCCCNc1ccnc2cc(Cl)ccc12 came out in this test?
Output line: inactive

Input line: Hi, do you know how Cc1nc2c(Br)cc(Br)cc2c(=O)n1-c1nnc(-c2cccc(Cl)c2Cl)c(N)n1 came out in this test?
Output line: inactive

Input line: Hi, do you know how COc1nc(=O)n(C2C=CC(=O)O2)cc1F (stereo unspecified) came out in this test?
Output line: inactive

###

Listing: GI50 of selected compounds
tested on: UACC-257 melanoma; test: NCI tumour cell line growth inhibition, 48 h

Sample answers from the record:
COMPOUND	RESULT
NC(=O)c1cc(I)ccc1NC(=O)/C=C/c1ccccc1	14.3 µM
CCOC(=O)c1c(C)c2c(n1Cc1ccccc1)CSCC2=O	26.9 µM
C=CC12CCN(CC1)C(C(O)c1ccnc3ccc(OC)cc13)C2 (stereo not given)	74.2 µM

Input line: Fill in: GI50 of O=c1[nH]c(O)c(C=Nc2ccc(-c3nc4ccccc4o3)cc2)c(=O)[nH]1 is ___
Output line: 58.4 µM

Input line: Fill in: GI50 of N#CC(I)CS(=O)(=O)c1ccccc1 (stereo not given) is ___
Output line: 17 µM

Input line: Fill in: GI50 of O=C(Nc1nc(-c2c[nH]c3ccccc23)cs1)c1n[nH]c(=O)c2ccccc12 is ___
Output line: 38.4 µM

Input line: Fill in: GI50 of NNc1ncnc2nc[nH]c12 is ___
Output line: 57.6 µM

Input line: Fill in: GI50 of COc1ccc(-c2c(C#N)c(N3CCOCC3)nc3[nH]c(=S)[nH]c(=S)c23)cc1OC is ___
Output line: > 100 µM

Input line: Fill in: GI50 of COC(=O)/C=C/c1cc(OC(C)=O)c2c(c1)C(C(=O)OC)C(c1ccc(OC(C)=O)c(OC(C)=O)c1)O2 (stereo not given) is ___
Output line: 13.7 µM

Input line: Fill in: GI50 of CCCCNCCCNCCCNC(=O)c1csc(-c2csc(CCNC(=O)C(NC(=O)C(C)C(O)C(C)NC(=O)C(NC(=O)c3nc(C(CC(N)=O)NCC(N)C(N)=O)nc(N)c3C)C(OC3OC(CO)C(O)C(O)C3OC3OC(CO)C(O)C(OC(N)=O)C3O)c3cnc[nH]3)C(C)O)n2)n1 (stereo not given) is ___
Output line: 0.106 µM

###

Listing: TGI of selected compounds
system: 786-0 renal; test: NCI tumour cell line growth inhibition, 48 h

Input line: Fill in: TGI of O=C(c1ccc([N+](=O)[O-])cc1[N+](=O)[O-])N(/N=C/C=C/c1ccccc1)c1nnc(-c2ccccc2)c(-c2ccccc2)n1 is ___
Output line: 56 µM

Input line: Fill in: TGI of CN1Cc2c(nc(-c3ccccc3)c[n+]2[O-])N(C)C1 is ___
Output line: > 100 µM

Input line: Fill in: TGI of COc1cc(/C=C2\CCCCC3=C2N=C2SC(C)=CN2C3c2cc(OC)c(OC)c(OC)c2)cc(OC)c1OC (stereo unspecified) is ___
Output line: > 100 µM

Input line: Fill in: TGI of CCCCCCCCCCCC[N+]12CC[N+](CCN)(CC1)CC2 is ___
Output line: > 100 µM

Input line: Fill in: TGI of O=Cc1cc2c(cc1-c1cc3c(cc1C=O)OCO3)OCO2 is ___
Output line: > 100 µM

Input line: Fill in: TGI of COC(=O)/C=C/c1cc(OC(C)=O)c2c(c1)C(C(=O)OC)C(c1ccc(OC(C)=O)c(OC(C)=O)c1)O2 (stereo unspecified) is ___
Output line: > 56.8 µM
